Test system: Moser human colon
Assay: In vitro cytotoxicity assay, Moser human colon
Assay type: cell-based
Conditions: two values per compound, four-fold serial dilution
Parameter: In vitro cytotoxicity IC50, MOSER (µg/mL)
Your answer should be a plain number; it is taken to be in µg/mL.

Supply reported In vitro cytotoxicity IC50, MOSER belonging to this compound: COc1cc([C@@H]2c3cc4c(cc3[C@@H](O[C@@H]3O[C@@H]5CO[C@@H](C)O[C@H]5[C@H](O)[C@H]3O)[C@H]3COC(=O)[C@H]23)OCO4)cc(N=Cc2cc(OC)c(OC)c(OC)c2)c1O [Example 21]
27

Supply reported In vitro cytotoxicity IC50, MOSER belonging to this compound: COc1cc([C@@H]2c3cc4c(cc3[C@@H](O[C@@H]3O[C@@H]5CO[C@@H](C)O[C@H]5[C@H](O)[C@H]3O)[C@H]3COC(=O)[C@H]23)OCO4)cc(NCN2C(=O)CCC2=O)c1O [Example 13]
12.1

Supply reported In vitro cytotoxicity IC50, MOSER belonging to this compound: COc1cc([C@@H]2c3cc4c(cc3[C@@H](O[C@@H]3O[C@@H]5CO[C@@H](C)O[C@H]5[C@H](O)[C@H]3O)[C@H]3COC(=O)[C@H]23)OCO4)cc(N=Cc2ccncc2)c1O [Example 19]
32

Supply reported In vitro cytotoxicity IC50, MOSER belonging to this compound: CNc1cc([C@@H]2c3cc4c(cc3[C@@H](O[C@@H]3O[C@@H]5CO[C@@H](C)O[C@H]5[C@H](O)[C@H]3O)[C@H]3COC(=O)[C@H]23)OCO4)cc(OC)c1O [Example 4, 3'-Desmethoxy-3'-methylamine etoposide]
49

Supply reported In vitro cytotoxicity IC50, MOSER belonging to this compound: C[C@@H]1OC[C@H]2O[C@@H](O[C@@H]3c4cc5c(cc4[C@@H](C4=CC(=O)C(=O)C(NC(=O)NCCCl)=C4)[C@H]4C(=O)OC[C@@H]43)OCO5)[C@H](O)[C@@H](O)[C@@H]2O1 [Example 29]
77

Supply reported In vitro cytotoxicity IC50, MOSER belonging to this compound: COc1cc([C@@H]2c3cc4c(cc3[C@@H](O[C@@H]3O[C@@H]5CO[C@@H](C)O[C@H]5[C@H](O)[C@H]3O)[C@H]3COC(=O)[C@H]23)OCO4)cc(N=Cc2ccco2)c1O [Example 18]
37
